- Test System: SST2 (Homo sapiens)
- Sequence (P30874 whole entry): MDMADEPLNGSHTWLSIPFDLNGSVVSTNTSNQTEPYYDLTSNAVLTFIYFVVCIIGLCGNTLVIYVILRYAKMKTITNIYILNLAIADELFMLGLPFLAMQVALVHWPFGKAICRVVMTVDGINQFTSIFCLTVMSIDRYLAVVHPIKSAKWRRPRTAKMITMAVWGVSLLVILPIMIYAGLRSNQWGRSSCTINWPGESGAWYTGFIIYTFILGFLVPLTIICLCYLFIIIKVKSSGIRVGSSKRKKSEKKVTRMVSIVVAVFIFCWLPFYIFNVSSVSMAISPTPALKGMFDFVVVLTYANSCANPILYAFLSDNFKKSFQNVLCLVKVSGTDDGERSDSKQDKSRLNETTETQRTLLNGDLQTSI
- Assay Summary: Hit Hunter cAMP XS+ assay, SST2 activation via Gi (reduction of forskolin-stimulated cAMP)
- Type: cell-based
- Condition: read-out: SST2 (EMax)
*1 amine or outer side, *2 acyl side, *3 side chain or, on linkers, in order; H or OH if unused. Where a SMILES comes first, the peptide text is derived from it. Side-chain parts run from the residue outwards. [ ]: non-standard residue; d: D form. The star is where a group is joined. Ala(piperidin-4-yl) = O=C([C@H](CC1CCN([*:3])CC1)N[*:1])[*:2]; X2 = O=C([C@@H]1C[C@@H](Oc2ccncc2)CN1[*:1])[*:2]; Ala(piperazin-1-yl) = N[C@@H](CN1CCNCC1)C(=O)O; Morpholine(3S-CO) = O=C(O)[C@@H]1COCCN1; Ethylenediamine = C(CN[*:2])N[*:1]; d(hPhe) = N[C@H](CCc1ccccc1)C(=O)O; Hyp = O=C(O)[C@@H]1C[C@@H](O)CN1; hPhe = N[C@@H](CCc1ccccc1)C(=O)O; 3Pal = N[C@@H](Cc1cccnc1)C(=O)O; Cyclohexylmethyl = C1CCC(C*)CC1; Tic = O=C(O)[C@@H]1Cc2ccccc2CN1; CO = O=C([*:1])[*:2]; Bn = c1ccc(C*)cc1
In this section we review reported Emax values for a set of compounds.
Note: unit % is implicit; provide only the numeric part.

The recorded Emax with SST2 (Homo sapiens) for NCCNC(=O)O[C@@H]1C[C@H]2C(=O)N[C@H](CCc3ccccc3)C(=O)N[C@H](Cc3c[nH]c4ccccc34)C(=O)N[C@@H](CN3CCNCC3)C(=O)N[C@@H](Cc3ccc(OCc4ccccc4)cc3)C(=O)N3Cc4ccccc4C[C@H]3C(=O)N2C1 [Example 25] (cyclo([Hyp]([CO-Ethylenediamine])[d(hPhe)][dW][Ala(piperazin-1-yl)]Y(Bn)[Tic])) was 100

Emax on SST2 (Homo sapiens) for NCCNC(=O)O[C@@H]1C[C@H]2C(=O)N[C@@H](CCc3ccccc3)C(=O)N[C@H](Cc3c[nH]c4ccccc34)C(=O)N[C@@H](CC3CCNCC3)C(=O)N[C@@H](Cc3ccc(OCC4CCCCC4)cc3)C(=O)N3Cc4ccccc4C[C@H]3C(=O)N2C1 [Example 44] (cyclo([Hyp]([CO-Ethylenediamine])[hPhe][dW][Ala(piperidin-4-yl)]Y(Cyclohexylmethyl)[Tic])) is 75.3

Bench note, SST2 (Homo sapiens): entry NCCNC(=O)O[C@@H]1C[C@H]2C(=O)N[C@@H](CCc3ccccc3)C(=O)N[C@H](Cc3c[nH]c4ccccc34)C(=O)N[C@@H](CN3CCNCC3)C(=O)N[C@@H](Cc3ccc(OCc4ccccc4)cc3)C(=O)N[C@@H](Cc3cccnc3)C(=O)N2C1 [Example 14] (cyclo([3Pal][Hyp]([CO-Ethylenediamine])[hPhe][dW][Ala(piperazin-1-yl)]Y(Bn))) , its Emax = 99.6

Measured Emax (SST2 (Homo sapiens)), entry O=C1N[C@@H](Cc2cccnc2)C(=O)N2C[C@H](Oc3ccncc3)C[C@H]2C(=O)N[C@H](CCc2ccccc2)C(=O)N[C@H](Cc2c[nH]c3ccccc23)C(=O)N[C@@H](CC2CCNCC2)C(=O)N[C@H]1Cc1ccc(OCc2ccccc2)cc1 [Example 20] (cyclo([3Pal][X2][d(hPhe)][dW][Ala(piperidin-4-yl)]Y(Bn))) : 98

Recorded Emax for O=C1N[C@@H](Cc2ccc(OCc3ccccc3)cc2)C(=O)N2Cc3ccccc3C[C@H]2C(=O)N2CCOC[C@H]2C(=O)N[C@@H](CCc2ccccc2)C(=O)N[C@H](Cc2c[nH]c3ccccc23)C(=O)N[C@H]1CN1CCNCC1 [Example 31] (cyclo([Tic][Morpholine(3S-CO)][hPhe][dW][Ala(piperazin-1-yl)]Y(Bn))) on SST2 (Homo sapiens) was 99.7

Simply: NCCNC(=O)O[C@@H]1C[C@H]2C(=O)N[C@@H](Cc3ccccc3)C(=O)N[C@H](Cc3c[nH]c4ccccc34)C(=O)N[C@@H](CC3CCNCC3)C(=O)N[C@@H](Cc3ccc(OCc4ccccc4)cc3)C(=O)N[C@@H](Cc3ccccc3)C(=O)N2C1 [Example 2] (cyclo(F[Hyp]([CO-Ethylenediamine])F[dW][Ala(piperidin-4-yl)]Y(Bn))) , SST2 (Homo sapiens), Emax = 96.4
